Tested on: NCI-H226 lung
Assay: NCI-60 one-dose screen, 48 h (100 = growth as untreated, 0 = no growth, -100 = all killed)
Settings: 10 µM unless noted
About 83,000 compounds went through this panel and 20% of them were active in at least one assay; those are over-represented in the sample as a whole.
Parameter measured: growth (%)
All answers are understood in %, so give the number only.

Recorded results for 4 compounds are shown here.
{"Smiles": "CC(C)=C[C@@H]1c2c(c3ccccc3n(C)c2=O)O[C@H]2c3c(c4ccccc4n(C)c3=O)OC(C)(C)[C@@H]12", "growth, %": 101}
{"Smiles": "CCCCCCN(CCCCCC)c1ccc(/C=C2/SC(=O)N(c3nc(N4CCCC4)nc(N4CCCC4)n3)C2=O)c(C)c1", "growth, %": 92.5}
{"Smiles": "COc1ccccc1NC(=O)N/C(N)=N/c1nc2ccccc2s1", "growth, %": 63.4}
{"Smiles": "Cc1ccc(/C=C/c2c(C(=O)/C=C/c3ccc(C(F)(F)F)cc3)c(C)nc3ccccc23)cc1", "growth, %": -46.1}

Input: So what does the record say about growth for COc1ccc(-c2nc3c(N)c(CO)c(C)nc3o2)cc1 ?
Output: 41.2

====

System: MALME-3M melanoma
Assay: NCI-60 one-dose screen, 48 h
Conditions: 10 µM unless noted
Method: Cells are grown in 96 well plates and exposed to the test compound for 48 hours. Compounds are tested at a single concentration, which is 10^-5 M for most compounds. The reported endpoint is percent growth (GI% or GIPRCNT), where numbers from 0 - 100% represent growth inhibition, and numbers from -100% - 0 represent cell death. For example, a value of 40 represents 60% growth inhibition. A value of 0 means no net growth occurred over the course of the experiment. […]
The panel holds about 83,000 compounds, 20% with a hit somewhere; the sample as a whole holds those more often. The source made the active and inactive calls. The calls were made as follows: active = growth percent below 10; inactive = the rest.
Entry note: the call must match one of label 1 (active), label 0 (inactive)

{"Molecule": "COc1ccccc1NC(=O)N/C(N)=N/c1nc2ccccc2s1", "Label": "label 0"}

Input: Dear colleague, could you share the recorded outcome for CCOc1c(C#N)nnc2c(C#N)c(NC(=O)c3ccccc3)nn12 when you have a moment?
Output: label 0

Input: Follow-up entry: Cc1ccc(NCCN(C)C)c2c(=O)c3ccccc3sc12
Output: label 0

Input: Follow-up entry: COc1ccc2occ(C3=C(c4c[nH]c5ccccc45)C(=O)N(O)C3=O)c2c1
Output: label 0

Input: Follow-up entry: CCCCn1c(=O)c2c(nc(NCCc3ccc(O)c(O)c3)n2CCC)n(CCCC)c1=O
Output: label 0

Input: Follow-up entry: Cc1cccc(Cc2cnc(NC(=O)/C=C/c3ccco3)s2)c1
Output: label 0

Input: Follow-up entry: C[C@H](NC(=O)[C@@H]1CSSC[C@@H](NC(=O)c2nc3ccccc3cc2O)C(=O)NCC(=O)N1C)c1ccccc1
Output: label 0

Input: Follow-up entry: O=C1/C(=C/c2ccc(Br)cc2)C=C(c2ccccc2)N1CCc1ccccc1
Output: label 0

Input: Follow-up entry: Cc1ccc(S(=O)(=O)n2cc(CNc3ccc(N4CCOCC4=O)cc3)c3ccccc32)cc1
Output: label 0

Input: Follow-up entry: C[C@@]1(CCC#N)[C@H]2CC[C@@H]3[C@H]4[C@H](C(=O)/C=C/c5cccnc5)CC[C@]4(C#N)CC[C@@]3(C)[C@]2(C)CC[C@H]1C(=O)/C=C/c1cccnc1
Output: label 0

Input: Follow-up entry: COc1cc(C(=O)/C=C/c2c(-c3ccc(F)cc3)nc3sc(C)cn23)cc(OC)c1OC
Output: label 1

Input: Follow-up entry: O=C(CCCCCCSc1nc(-c2ccccc2)cc(-c2ccc(Cl)cc2)n1)NO
Output: label 1

Input: Follow-up entry: COc1ccc(OC)c(-c2c(C#N)c(-c3ccc(Cl)cc3)nc3c2c(-c2ccccc2)nn3-c2ccccc2)c1
Output: label 0

Input: Follow-up entry: N=C1C(c2nc(-c3ccc(Br)cc3)cs2)=C(O)CN1CC1CCCO1 (stereo not given)
Output: label 0

Input: Follow-up entry: CCCCCCCC/C=C\CCCCCCCCOc1ccccc1CC(=O)NCC[N+](C)(C)C
Output: label 0
